Biological target: CDK13/Cyclin K (Homo sapiens)
Sequence (O75909 whole entry): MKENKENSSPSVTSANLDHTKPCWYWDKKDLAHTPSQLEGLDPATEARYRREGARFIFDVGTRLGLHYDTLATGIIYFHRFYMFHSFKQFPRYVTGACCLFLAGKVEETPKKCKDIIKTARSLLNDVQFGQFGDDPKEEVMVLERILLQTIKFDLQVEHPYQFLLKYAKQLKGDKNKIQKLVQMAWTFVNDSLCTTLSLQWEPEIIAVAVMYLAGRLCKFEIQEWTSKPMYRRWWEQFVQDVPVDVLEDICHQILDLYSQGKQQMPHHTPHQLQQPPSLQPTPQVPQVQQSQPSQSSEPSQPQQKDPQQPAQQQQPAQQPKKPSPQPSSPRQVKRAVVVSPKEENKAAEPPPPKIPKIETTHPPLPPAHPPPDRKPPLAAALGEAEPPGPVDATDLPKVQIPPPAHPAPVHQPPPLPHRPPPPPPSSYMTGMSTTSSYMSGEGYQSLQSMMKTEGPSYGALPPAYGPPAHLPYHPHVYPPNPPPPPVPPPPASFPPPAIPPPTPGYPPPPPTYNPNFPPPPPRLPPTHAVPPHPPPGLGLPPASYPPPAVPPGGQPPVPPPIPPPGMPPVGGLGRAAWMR
Sequence (Q14004 other isoform, or with tags, fused parts or gaps): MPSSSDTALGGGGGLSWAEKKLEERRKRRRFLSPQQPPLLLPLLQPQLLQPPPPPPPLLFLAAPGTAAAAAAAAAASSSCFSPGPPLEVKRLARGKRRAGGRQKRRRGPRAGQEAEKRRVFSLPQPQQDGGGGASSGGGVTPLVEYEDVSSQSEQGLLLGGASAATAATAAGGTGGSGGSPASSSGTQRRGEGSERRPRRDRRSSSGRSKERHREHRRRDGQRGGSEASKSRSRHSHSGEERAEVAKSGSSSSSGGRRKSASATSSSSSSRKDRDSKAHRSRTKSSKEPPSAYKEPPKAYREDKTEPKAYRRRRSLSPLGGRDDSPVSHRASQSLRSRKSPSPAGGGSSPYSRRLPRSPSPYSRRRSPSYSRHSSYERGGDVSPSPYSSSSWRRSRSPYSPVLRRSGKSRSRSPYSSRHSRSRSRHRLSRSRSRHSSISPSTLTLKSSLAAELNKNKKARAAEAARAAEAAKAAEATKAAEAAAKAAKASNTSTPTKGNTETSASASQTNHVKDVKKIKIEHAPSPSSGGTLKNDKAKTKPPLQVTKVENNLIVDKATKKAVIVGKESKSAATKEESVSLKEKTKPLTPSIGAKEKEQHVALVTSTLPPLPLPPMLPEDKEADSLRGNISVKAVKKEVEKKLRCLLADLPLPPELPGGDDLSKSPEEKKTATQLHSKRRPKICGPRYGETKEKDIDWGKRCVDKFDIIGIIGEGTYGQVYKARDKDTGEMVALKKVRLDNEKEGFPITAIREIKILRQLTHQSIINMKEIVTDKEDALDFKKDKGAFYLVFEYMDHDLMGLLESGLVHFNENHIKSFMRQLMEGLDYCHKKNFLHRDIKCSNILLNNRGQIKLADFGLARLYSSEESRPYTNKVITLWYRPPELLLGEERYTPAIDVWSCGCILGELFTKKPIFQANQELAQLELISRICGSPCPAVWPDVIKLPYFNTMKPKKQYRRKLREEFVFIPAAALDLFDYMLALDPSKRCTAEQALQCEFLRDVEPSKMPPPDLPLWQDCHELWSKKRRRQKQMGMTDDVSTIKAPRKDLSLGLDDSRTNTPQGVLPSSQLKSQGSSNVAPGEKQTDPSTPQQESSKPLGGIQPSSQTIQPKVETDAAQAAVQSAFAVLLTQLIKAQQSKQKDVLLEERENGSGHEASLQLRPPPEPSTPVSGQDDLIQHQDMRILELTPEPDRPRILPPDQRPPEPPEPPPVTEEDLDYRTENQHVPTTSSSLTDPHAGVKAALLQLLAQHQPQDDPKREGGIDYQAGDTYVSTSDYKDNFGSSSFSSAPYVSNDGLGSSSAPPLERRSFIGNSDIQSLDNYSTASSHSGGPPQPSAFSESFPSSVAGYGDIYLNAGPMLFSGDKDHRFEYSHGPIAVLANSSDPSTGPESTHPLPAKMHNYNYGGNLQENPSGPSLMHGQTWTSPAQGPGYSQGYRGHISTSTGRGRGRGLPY
Experiment: NanoBRET live-cell target engagement, CDK13-NanoLuc/Cyclin K in HEK-293
Type: binding
Details: CDK13/K; 10µM; read-out: Inhibition at 10µM (%) Replicate 2
Classification field: enter Satisfied for inhibition at 10 µM values not below 10%, Not satisfied for values below it.

compound: CCCCOc1c(C(=O)c2c(F)cc(C)cc2F)c[nH]c2nncc1-2
category_label: Satisfied

compound: O=C(NC1CCNCC1)c1[nH]ncc1NC(=O)c1c(Cl)cccc1Cl
category_label: Satisfied

compound: COc1cc(F)ccc1-c1ncnc(Nc2cccc(C[S@](C)(=N)=O)c2)n1
category_label: Not satisfied

Ask | Entry CC(C)c1cnn2c(NCc3ccccc3)cc(NCCCCCCN)nc12 : is its inhibition at 10 µM no less than 10%?
Reply | Satisfied

Ask | Item: CCN1CCN(Cc2ccc(NC(=O)Nc3ccc(Oc4cc(NC)ncn4)cc3)cc2C(F)(F)F)CC1
Reply | Satisfied

Ask | Item: C[C@H]1CC[C@H](n2c3cnccc3c3cnc(Nc4ccc5c(n4)CCN(C(=O)CO)C5)nc32)CC1
Reply | Not satisfied

Ask | Item: COc1cc(F)ccc1-c1cc(Nc2cc(CS(C)(=N)=O)ccn2)ncc1F (stereo not drawn)
Reply | Satisfied

Ask | Item: CCN1CCN(Cc2ccc(Nc3ncc(F)c(-c4cc(F)c5nc(C)n(C(C)C)c5c4)n3)nc2)CC1
Reply | Satisfied

====

Target: CDK12/Cyclin K (Homo sapiens, UniProt Q9NYV4)
Sequence (Q9NYV4 1-1481 isoform Q9NYV4-2): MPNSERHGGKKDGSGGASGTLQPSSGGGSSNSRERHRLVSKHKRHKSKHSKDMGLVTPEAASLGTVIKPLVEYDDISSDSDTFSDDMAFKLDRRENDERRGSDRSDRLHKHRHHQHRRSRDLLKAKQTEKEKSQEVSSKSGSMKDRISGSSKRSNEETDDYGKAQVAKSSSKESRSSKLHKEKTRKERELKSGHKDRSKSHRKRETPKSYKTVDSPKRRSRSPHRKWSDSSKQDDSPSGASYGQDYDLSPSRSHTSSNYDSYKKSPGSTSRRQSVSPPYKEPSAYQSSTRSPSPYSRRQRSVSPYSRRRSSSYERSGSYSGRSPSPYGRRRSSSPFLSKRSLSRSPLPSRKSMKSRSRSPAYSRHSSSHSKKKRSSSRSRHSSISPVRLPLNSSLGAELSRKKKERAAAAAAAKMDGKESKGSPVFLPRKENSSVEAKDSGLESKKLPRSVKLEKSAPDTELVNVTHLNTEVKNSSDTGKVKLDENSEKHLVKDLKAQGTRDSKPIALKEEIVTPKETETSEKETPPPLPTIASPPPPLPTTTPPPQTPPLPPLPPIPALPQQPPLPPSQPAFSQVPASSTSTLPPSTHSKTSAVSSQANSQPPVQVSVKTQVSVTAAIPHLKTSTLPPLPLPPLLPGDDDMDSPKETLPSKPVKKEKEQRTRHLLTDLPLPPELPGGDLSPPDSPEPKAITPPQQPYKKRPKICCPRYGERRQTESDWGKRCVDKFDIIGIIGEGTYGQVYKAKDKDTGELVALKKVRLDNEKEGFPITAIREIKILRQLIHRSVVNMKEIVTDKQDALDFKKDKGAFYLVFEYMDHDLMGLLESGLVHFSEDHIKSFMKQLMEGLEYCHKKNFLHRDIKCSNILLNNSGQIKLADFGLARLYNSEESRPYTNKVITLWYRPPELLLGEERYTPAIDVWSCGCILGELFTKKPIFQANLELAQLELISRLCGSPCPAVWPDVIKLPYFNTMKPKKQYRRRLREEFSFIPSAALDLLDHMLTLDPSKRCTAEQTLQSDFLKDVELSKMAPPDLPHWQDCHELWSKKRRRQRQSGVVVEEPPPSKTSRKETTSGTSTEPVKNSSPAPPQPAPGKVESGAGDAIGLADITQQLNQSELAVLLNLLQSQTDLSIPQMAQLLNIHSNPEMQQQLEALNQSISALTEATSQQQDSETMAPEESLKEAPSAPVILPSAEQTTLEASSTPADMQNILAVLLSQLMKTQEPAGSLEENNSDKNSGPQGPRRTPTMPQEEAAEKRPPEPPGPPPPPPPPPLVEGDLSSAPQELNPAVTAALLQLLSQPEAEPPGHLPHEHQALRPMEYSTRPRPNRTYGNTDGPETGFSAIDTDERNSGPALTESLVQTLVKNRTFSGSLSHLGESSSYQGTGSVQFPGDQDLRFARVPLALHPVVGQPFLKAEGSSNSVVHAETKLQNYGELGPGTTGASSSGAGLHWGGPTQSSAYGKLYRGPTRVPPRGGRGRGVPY
Sequence (O75909 whole entry partner): as the sequence (O75909 whole entry) above
Assay: NanoBRET live-cell target engagement, CDK12-NanoLuc/Cyclin K in HEK-293
Type: binding
Details: 10µM; average of experiments; read-out: CDK12/K Inhibition at 10µM (%)
Classification field: enter YES for inhibition at 10 µM values not below 30%, NO for values below it.

substance_smiles: CN1CCN(c2ccc(Nc3ncc4cc5n(c4n3)C3(CCCCC3)CNC5=O)nc2)CC1
category_label: NO

substance_smiles: CC(C)CC(=O)Nc1[nH]nc2c1CN(C(=O)C1CCN(C)CC1)C2(C)C
category_label: YES

substance_smiles: CN(C)C(=O)c1cc2cnc(Nc3ccc(N4CCNCC4)cn3)nc2n1C1CCCC1
category_label: NO

substance_smiles: CN1C/C=C/CCOc2cccc(c2)-c2ccnc(n2)Nc2cccc(c2)C1
category_label: YES

substance_smiles: CN(C)C/C=C/C(=O)Nc1ccc(C(=O)N2CCC[C@@H](Nc3ncc(Cl)c(-c4c[nH]c5ccccc45)n3)C2)cc1
category_label: YES

Ask | Entry CC(C)[C@H](CO)Nc1nc(Nc2ccc(C(=O)O)c(Cl)c2)c2ncn(C(C)C)c2n1 : is its inhibition at 10 µM no less than 30%?
Reply | NO

====

Biological target: CDK5/CDK5R1 (Homo sapiens, UniProt Q00535)
Sequence (Q00535 whole entry): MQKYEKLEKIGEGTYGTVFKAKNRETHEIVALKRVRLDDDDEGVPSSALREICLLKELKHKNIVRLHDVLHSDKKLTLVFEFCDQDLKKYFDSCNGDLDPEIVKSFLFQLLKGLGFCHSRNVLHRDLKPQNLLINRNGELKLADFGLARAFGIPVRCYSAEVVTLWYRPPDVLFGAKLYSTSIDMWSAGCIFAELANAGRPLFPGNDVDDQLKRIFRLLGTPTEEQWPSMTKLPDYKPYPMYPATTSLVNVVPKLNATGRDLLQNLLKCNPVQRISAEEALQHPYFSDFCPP
Sequence (Q15078 whole entry partner): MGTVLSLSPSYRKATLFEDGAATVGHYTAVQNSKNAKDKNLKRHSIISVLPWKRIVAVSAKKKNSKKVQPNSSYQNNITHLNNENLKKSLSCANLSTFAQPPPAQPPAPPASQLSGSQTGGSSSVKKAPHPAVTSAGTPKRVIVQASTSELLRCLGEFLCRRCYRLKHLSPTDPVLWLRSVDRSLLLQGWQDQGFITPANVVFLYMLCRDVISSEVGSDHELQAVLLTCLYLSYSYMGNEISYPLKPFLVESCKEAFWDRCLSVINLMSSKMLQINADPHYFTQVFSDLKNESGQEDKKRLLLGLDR
Assay: NanoBRET live-cell target engagement, CDK5-NanoLuc/CDK5R1 in HEK-293
Assay type: binding
Conditions: 10µM; independent experiment 2
property_name: CDK5/CDK5R1 Inhibition at 10µM (%)
Number only, in %; omit the unit.

Recorded results for 3 compounds are shown here.
compound: O=C1NC(=NCc2cccs2)S/C1=C\c1ccc2ncccc2c1
property_name: CDK5/CDK5R1 Inhibition at 10µM (%)
quantity_unit: %
reported: -14.5
--
compound: O=C1NCCc2[nH]c(-c3ccncc3)cc21
property_name: CDK5/CDK5R1 Inhibition at 10µM (%)
quantity_unit: %
reported: 35.7
--
compound: CN(C)C/C=C/C(=O)Nc1ccc(C(=O)Nc2cccc(Nc3ncc(Cl)c(-c4c[nH]c5ccccc45)n3)c2)cc1
property_name: CDK5/CDK5R1 Inhibition at 10µM (%)
quantity_unit: %
reported: 65.8

Consider the additional compound presented here.
Ask | Given the entry Cc1c(Br)c(Br)c2c3c1nc(N1CCNCC1)n3CCC2.Cl [SEL 120-34A] , report its measured CDK5/CDK5R1 Inhibition at 10µM (%).
Reply | 61.8
